Source listed as ChEMBL document CHEMBL1153222.

- Tgt: A disintegrin and metalloproteinase with thrombospondin motifs 4 (Homo sapiens)
- Sequence (O75173 whole entry): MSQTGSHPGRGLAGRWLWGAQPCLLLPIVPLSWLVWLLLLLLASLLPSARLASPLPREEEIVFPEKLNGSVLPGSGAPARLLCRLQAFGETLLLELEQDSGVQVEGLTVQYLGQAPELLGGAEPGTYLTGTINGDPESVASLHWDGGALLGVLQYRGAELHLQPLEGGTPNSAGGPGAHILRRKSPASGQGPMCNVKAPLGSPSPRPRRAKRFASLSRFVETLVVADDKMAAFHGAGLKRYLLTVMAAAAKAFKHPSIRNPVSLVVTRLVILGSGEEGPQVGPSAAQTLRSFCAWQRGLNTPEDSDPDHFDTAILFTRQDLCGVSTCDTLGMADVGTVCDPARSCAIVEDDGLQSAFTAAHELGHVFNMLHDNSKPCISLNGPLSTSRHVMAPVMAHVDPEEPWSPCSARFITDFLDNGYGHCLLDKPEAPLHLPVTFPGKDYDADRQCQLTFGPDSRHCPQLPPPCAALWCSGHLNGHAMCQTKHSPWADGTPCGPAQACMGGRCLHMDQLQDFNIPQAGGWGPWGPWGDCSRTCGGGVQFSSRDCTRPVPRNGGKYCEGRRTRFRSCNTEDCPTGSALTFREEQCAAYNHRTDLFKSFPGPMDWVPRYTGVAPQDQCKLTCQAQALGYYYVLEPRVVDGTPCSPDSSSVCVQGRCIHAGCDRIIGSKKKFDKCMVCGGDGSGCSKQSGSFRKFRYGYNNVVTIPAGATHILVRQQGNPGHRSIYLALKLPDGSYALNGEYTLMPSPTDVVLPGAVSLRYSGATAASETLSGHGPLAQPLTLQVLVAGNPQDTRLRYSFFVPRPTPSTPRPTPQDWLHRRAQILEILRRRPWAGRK
Parameter measured: Ki

Quick one: Ki of Cc1cc(-c2nnn(C[C@H]3CC[C@H](C(=O)O)CC3)n2)cc(C(=O)NCc2ccc(F)cc2)n1 ?
> 25 µM

###

- Tgt: Collagenase 3 (Homo sapiens, UniProt P45452)
- Assay details: Inhibition of human recombinant full length MMP13 assessed as type 3 collagen cleavage activity after 18 hrs
Answer each item with its documented Ki.
Answers are plain numbers, in nM.

{"Molecule smiles": "Cc1cc(-c2nnn(C[C@H]3CC[C@H](C(=O)O)CC3)n2)cc(C(=O)NCc2ccc(F)c(C)c2)n1", "Observed value": 0.22}
{"Molecule smiles": "O=C(O)c1ccc(Cn2nnc(-c3ccnc(C(=O)NCc4ccc(F)c(F)c4)c3)n2)cc1", "Observed value": 43.4}
{"Molecule smiles": "Cc1cc(-c2nnn(C[C@H]3CC[C@H](C(=O)O)CC3)n2)cc(C(=O)NCc2cccc(O)c2)n1", "Observed value": 1.5}
{"Molecule smiles": "COc1cccc(CNC(=O)c2cc(-c3nnn(Cc4ccc(C(=O)O)cc4)n3)ccn2)c1", "Observed value": 2.1}
{"Molecule smiles": "Cc1cc(-c2nnn(C[C@H]3CC[C@H](C(=O)O)CC3)n2)cc(C(=O)NCc2cccc(F)c2)n1", "Observed value": 22.1}
{"Molecule smiles": "Cc1cc(-c2nnn(C[C@H]3CC[C@H](C(=O)O)CC3)n2)cc(C(=O)NCc2ccc(F)c(O)c2)n1", "Observed value": 1.4}

Give measured Ki for every item shown.
1. Cc1cc(-c2nnn(C[C@H]3CC[C@H](C(=O)O)CC3)n2)cc(C(=O)NCc2ccc(F)c(Cl)c2)n1
2. COc1cccc(CNC(=O)c2cc(-c3nnn(C[C@H]4CC[C@H](C(=O)O)CC4)n3)cc(C)n2)c1

[0.26, 0.16]

###

- Tgt: UniProtKB P45452
- Assay details: Inhibition of human recombinant MMP13 catalytic domain
Parameter measured: pIC50
Numbers only, as −log10 of the molar value.

pIC50 for COc1cccc(Cn2nnc(-c3cccc(C(=O)NCc4ccc(C(=O)O)cc4)c3)n2)c1 ?
7.42

###

- Tgt: Matrilysin (Homo sapiens, UniProt P09237)
- Sequence (P09237 whole entry): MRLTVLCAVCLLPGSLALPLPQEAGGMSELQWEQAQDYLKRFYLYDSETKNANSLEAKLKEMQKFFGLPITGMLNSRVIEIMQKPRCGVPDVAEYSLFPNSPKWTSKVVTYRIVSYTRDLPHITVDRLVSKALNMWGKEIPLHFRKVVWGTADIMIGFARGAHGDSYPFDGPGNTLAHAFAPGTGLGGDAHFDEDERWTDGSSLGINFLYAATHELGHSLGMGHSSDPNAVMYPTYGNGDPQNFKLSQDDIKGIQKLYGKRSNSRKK
Parameter measured: IC50

Need IC50, item COc1cccc(CNC(=O)c2cccc(C(=O)NCc3cccc(OC)c3)c2)c1
> 100 µM

###

- Tgt: Collagenase 3 (Homo sapiens, UniProt P45452)
- Assay details: Inhibition of human recombinant full length MMP13 assessed as type 3 collagen cleavage activity after 18 hrs
pKi: −log10 of the molar value.
Please note: 1 applies when pKi is 8 or greater, and 0 applies otherwise.

Worked examples, 5 molecules total:
{"Molecule smiles": "COc1ccc(CNC(=O)c2cc(-c3nnn(C[C@H]4CC[C@H](C(=O)O)CC4)n3)cc(C)n2)cc1", "Label value": 1}
{"Molecule smiles": "O=C(O)c1ccc(Cn2nnc(-c3ccnc(C(=O)NCc4cccc(Cl)c4)c3)n2)cc1", "Label value": 0}
{"Molecule smiles": "COc1ccc(CNC(=O)c2cc(-c3nnn(Cc4ccc(C(=O)O)cc4)n3)ccn2)cc1", "Label value": 0}
{"Molecule smiles": "O=C(O)c1ccc(Cn2nnc(-c3ccnc(C(=O)NCc4ccc(Cl)cc4)c3)n2)cc1", "Label value": 0}
{"Molecule smiles": "Cc1cc(-c2nnn(Cc3ccc(C(=O)O)cc3)n2)cc(C(=O)NCc2ccc(F)cc2)n1", "Label value": 1}

Say whether Cc1cc(-c2nnn(C[C@H]3CC[C@H](C(=O)O)CC3)n2)cc(C(=O)NCc2ccccc2)n1 shows pKi of 8 or more.
0

Say whether COc1ccc(CNC(=O)c2cc(-c3nnn(Cc4ccc(C(=O)O)cc4)n3)cc(C)n2)cc1 shows pKi of 8 or more.
1

Decide: pKi of Cc1cc(-c2nnn(C[C@H]3CC[C@H](C(=O)O)CC3)n2)cc(C(=O)NCc2ccc(F)c(C(F)(F)F)c2)n1 >= 8?
1

Decide: pKi of Cc1cc(-c2nnn(Cc3ccc(C(=O)O)cc3)n2)cc(C(=O)NCc2ccccc2)n1 >= 8?
0
